Just for reference, BigSolDB 2.1 is where these values come from.

Conditions: in ethanol, 288.15 K
quantity: solubility (mole fraction)
Answers are plain numbers.

Any idea what solubility (mole fraction) was measured for `COc1cc(/C=C/C(=O)O)cc(OC)c1OC` ?
0.0114

----------
Conditions: in water, 293.15 K
quantity: solubility (mole fraction)
One number for each entry.

Any idea what solubility (mole fraction) was measured for `COc1cc(/C=C/C(=O)O)cc(OC)c1OC` ?
6.8e-05

----------
Settings: in ethanol, 293.15 K
quantity: solubility (mole fraction)
Answers are plain numbers.

Any idea what solubility (mole fraction) was measured for `COc1cc(/C=C/C(=O)O)cc(OC)c1OC` ?
0.0153

----------
Settings: in acetone, 298.15 K
quantity: solubility (mole fraction)
Numbers only.

Any idea what solubility (mole fraction) was measured for `COc1cc(/C=C/C(=O)O)cc(OC)c1OC` ?
0.0301

----------
Conditions: in methanol, 303.15 K
quantity: solubility (mole fraction)

Any idea what solubility (mole fraction) was measured for `COc1cc(/C=C/C(=O)O)cc(OC)c1OC` ?
0.0315

----------
Conditions: in methanol, 323.15 K
quantity: solubility (mole fraction)
Numbers only.

Any idea what solubility (mole fraction) was measured for `COc1cc(/C=C/C(=O)O)cc(OC)c1OC` ?
0.0943

----------
Conditions: in water, 298.15 K
quantity: solubility (mole fraction)
Give bare numbers.

Any idea what solubility (mole fraction) was measured for `COc1cc(/C=C/C(=O)O)cc(OC)c1OC` ?
7.61e-05

----------
Settings: in acetone, 278.15 K
quantity: solubility (mole fraction)
Answers are plain numbers.

Any idea what solubility (mole fraction) was measured for `COc1cc(/C=C/C(=O)O)cc(OC)c1OC` ?
0.0175

----------
Conditions: in ethanol, 303.15 K
quantity: solubility (mole fraction)
Answers are plain numbers.

Any idea what solubility (mole fraction) was measured for `COc1cc(/C=C/C(=O)O)cc(OC)c1OC` ?
0.0261

----------
Conditions: in ethanol, 298.15 K
quantity: solubility (mole fraction)
Give bare numbers.

Any idea what solubility (mole fraction) was measured for `COc1cc(/C=C/C(=O)O)cc(OC)c1OC` ?
0.0201

----------
Conditions: in methanol, 318.15 K
quantity: solubility (mole fraction)
Answers are plain numbers.

Any idea what solubility (mole fraction) was measured for `COc1cc(/C=C/C(=O)O)cc(OC)c1OC` ?
0.0717

----------
Settings: in methanol, 283.15 K
quantity: solubility (mole fraction)
Numbers only.

Any idea what solubility (mole fraction) was measured for `COc1cc(/C=C/C(=O)O)cc(OC)c1OC` ?
0.00922

----------
Settings: in isopropanol, 283.15 K
quantity: solubility (mole fraction)
One number for each entry.

Any idea what solubility (mole fraction) was measured for `COc1cc(/C=C/C(=O)O)cc(OC)c1OC` ?
0.0063

----------
Details: in water, 283.15 K
quantity: solubility (mole fraction)

Any idea what solubility (mole fraction) was measured for `COc1cc(/C=C/C(=O)O)cc(OC)c1OC` ?
5.3e-05

----------
Conditions: in methanol, 288.15 K
quantity: solubility (mole fraction)
Answers are plain numbers.

Any idea what solubility (mole fraction) was measured for `COc1cc(/C=C/C(=O)O)cc(OC)c1OC` ?
0.0127

----------
Conditions: in isopropanol, 318.15 K
quantity: solubility (mole fraction)
Give bare numbers.

Any idea what solubility (mole fraction) was measured for `COc1cc(/C=C/C(=O)O)cc(OC)c1OC` ?
0.0511

----------
Details: in methanol, 308.15 K
quantity: solubility (mole fraction)
Give bare numbers.

Any idea what solubility (mole fraction) was measured for `COc1cc(/C=C/C(=O)O)cc(OC)c1OC` ?
0.0417

----------
Settings: in ethanol, 308.15 K
quantity: solubility (mole fraction)

Any idea what solubility (mole fraction) was measured for `COc1cc(/C=C/C(=O)O)cc(OC)c1OC` ?
0.0341

----------
Details: in water, 288.15 K
quantity: solubility (mole fraction)
One number for each entry.

Any idea what solubility (mole fraction) was measured for `COc1cc(/C=C/C(=O)O)cc(OC)c1OC` ?
6.05e-05

----------
Conditions: in ethanol, 283.15 K
quantity: solubility (mole fraction)

Any idea what solubility (mole fraction) was measured for `COc1cc(/C=C/C(=O)O)cc(OC)c1OC` ?
0.0085

----------
Settings: in water, 278.15 K
quantity: solubility (mole fraction)
Numbers only.

Any idea what solubility (mole fraction) was measured for `COc1cc(/C=C/C(=O)O)cc(OC)c1OC` ?
4.67e-05

----------
Settings: in isopropanol, 278.15 K
quantity: solubility (mole fraction)
Give bare numbers.

Any idea what solubility (mole fraction) was measured for `COc1cc(/C=C/C(=O)O)cc(OC)c1OC` ?
0.00465

----------
Settings: in acetone, 313.15 K
quantity: solubility (mole fraction)
One number for each entry.

Any idea what solubility (mole fraction) was measured for `COc1cc(/C=C/C(=O)O)cc(OC)c1OC` ?
0.044

----------
Conditions: in water, 303.15 K
quantity: solubility (mole fraction)
Numbers only.

Any idea what solubility (mole fraction) was measured for `COc1cc(/C=C/C(=O)O)cc(OC)c1OC` ?
8.55e-05

----------
Conditions: in acetone, 288.15 K
quantity: solubility (mole fraction)
Give bare numbers.

Any idea what solubility (mole fraction) was measured for `COc1cc(/C=C/C(=O)O)cc(OC)c1OC` ?
0.0232

----------
Conditions: in acetone, 318.15 K
quantity: solubility (mole fraction)
Numbers only.

Any idea what solubility (mole fraction) was measured for `COc1cc(/C=C/C(=O)O)cc(OC)c1OC` ?
0.0492

----------
Conditions: in water, 323.15 K
quantity: solubility (mole fraction)
Give bare numbers.

Any idea what solubility (mole fraction) was measured for `COc1cc(/C=C/C(=O)O)cc(OC)c1OC` ?
0.000131

----------
Settings: in water, 318.15 K
quantity: solubility (mole fraction)
Answers are plain numbers.

Any idea what solubility (mole fraction) was measured for `COc1cc(/C=C/C(=O)O)cc(OC)c1OC` ?
0.000118

----------
Settings: in acetone, 308.15 K
quantity: solubility (mole fraction)
Numbers only.

Any idea what solubility (mole fraction) was measured for `COc1cc(/C=C/C(=O)O)cc(OC)c1OC` ?
0.0391

----------
Conditions: in acetone, 303.15 K
quantity: solubility (mole fraction)
Answers are plain numbers.

Any idea what solubility (mole fraction) was measured for `COc1cc(/C=C/C(=O)O)cc(OC)c1OC` ?
0.0343

----------
Settings: in methanol, 293.15 K
quantity: solubility (mole fraction)
Give bare numbers.

Any idea what solubility (mole fraction) was measured for `COc1cc(/C=C/C(=O)O)cc(OC)c1OC` ?
0.0175

----------
Details: in water, 313.15 K
quantity: solubility (mole fraction)
Numbers only.

Any idea what solubility (mole fraction) was measured for `COc1cc(/C=C/C(=O)O)cc(OC)c1OC` ?
0.000107

----------
Conditions: in isopropanol, 293.15 K
quantity: solubility (mole fraction)

Any idea what solubility (mole fraction) was measured for `COc1cc(/C=C/C(=O)O)cc(OC)c1OC` ?
0.0121
